Molecular target: COX-2 (Mus musculus, UniProt Q05769)
Construct: endogenous in cells
Sequence (Q05769 18-604): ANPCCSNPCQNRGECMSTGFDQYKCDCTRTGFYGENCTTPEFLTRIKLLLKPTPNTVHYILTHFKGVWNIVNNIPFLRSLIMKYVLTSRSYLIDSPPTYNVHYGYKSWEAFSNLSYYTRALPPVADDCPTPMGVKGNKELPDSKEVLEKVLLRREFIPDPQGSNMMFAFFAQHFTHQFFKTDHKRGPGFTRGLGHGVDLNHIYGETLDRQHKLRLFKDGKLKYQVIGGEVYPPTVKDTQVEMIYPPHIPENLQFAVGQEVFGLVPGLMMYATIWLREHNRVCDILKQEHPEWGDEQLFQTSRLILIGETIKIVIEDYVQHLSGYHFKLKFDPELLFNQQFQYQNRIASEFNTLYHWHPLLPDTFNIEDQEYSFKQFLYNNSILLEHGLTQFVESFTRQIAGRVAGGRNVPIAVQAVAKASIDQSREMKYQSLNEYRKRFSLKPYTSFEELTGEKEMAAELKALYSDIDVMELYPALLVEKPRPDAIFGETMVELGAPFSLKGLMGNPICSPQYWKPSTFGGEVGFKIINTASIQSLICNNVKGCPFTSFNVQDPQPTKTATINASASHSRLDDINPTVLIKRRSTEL
Experiment: COX-2 assay: PGE2 release (RIA) from LPS-stimulated mouse peritoneal macrophages
Settings: LPS 1 mg/L 9 h, PGE2 by RIA
measurement kind: IC50 (nM)
// units = nM; emit number, no label

The reported value for `CS(=O)(=O)c1ccc(-c2c(-c3ccc(Cl)cc3)[nH]c3ccc(Cl)cc23)cc1` in terms of IC50 is 354

Consider `NS(=O)(=O)c1ccc(-c2[nH]c3ccccc3c2-c2ccc(F)cc2)cc1` . Its measured IC50 is 5.15

response.value for `CS(=O)(=O)c1ccc(-c2c(-c3ccccc3)[nH]c3ccc(Cl)cc23)cc1` (field: IC50) = 0.27

IC50 measured on `Cc1ccc(-c2c(-c3ccc(S(C)(=O)=O)cc3)[nH]c3ccccc23)cc1` = 0.0896

// `CS(=O)(=O)c1ccc(-c2[nH]c3ccccc3c2-c2ccc(Br)cc2)cc1` : IC50 value = 0.369

The value of IC50 measured for the compound `CS(=O)(=O)c1ccc(-c2[nH]c3ccc(Cl)cc3c2-c2ccc(Cl)cc2)cc1` turned out to be 85.1

Looking up `NS(=O)(=O)c1ccc(-c2[nH]c3ccccc3c2-c2ccccc2)cc1` , I found its IC50 recorded as 0.161

Lab note: `Cc1ccc(-c2c(-c3ccc(S(N)(=O)=O)cc3)[nH]c3ccccc23)cc1` gave IC50 of 0.0684

For record `Cc1ccc(-c2[nH]c3ccc(Cl)cc3c2-c2ccc(S(C)(=O)=O)cc2)cc1` the listed IC50 is 1.68

`NS(=O)(=O)c1ccc(-c2[nH]c3ccc(Cl)cc3c2-c2ccccc2)cc1` has a reported IC50 of 0.143

The compound identified as `NS(=O)(=O)c1ccc(-c2[nH]c3ccc(Cl)cc3c2-c2ccc(Cl)cc2)cc1` registered its IC50 at 0.541

What the record says about `NS(=O)(=O)c1ccc(-c2[nH]c3ccc(Br)cc3c2-c2ccccc2)cc1` : IC50 is 5

The reported IC50 of the compound `NS(=O)(=O)c1ccc(-c2c(-c3ccccc3)[nH]c3ccccc23)cc1` was 2.55

Reported IC50 of `CC(=O)Oc1ccccc1-c1[nH]c2ccc(Cl)cc2c1-c1ccc(S(C)(=O)=O)cc1` : 6

`Cc1ccc2[nH]c(-c3ccc(S(N)(=O)=O)cc3)c(-c3ccccc3)c2c1` yielded IC50 of 0.0171

The recorded IC50 for entry `COc1ccc(-c2[nH]c3ccc(Cl)cc3c2-c2ccc(S(C)(=O)=O)cc2)cc1` equals 2.81

Item: `CS(=O)(=O)c1ccc(-c2[nH]c3ccc(F)cc3c2-c2ccccc2)cc1` | IC50: 5

Data point: `CS(=O)(=O)c1ccc(-c2[nH]c3ccc(Cl)cc3c2-c2ccc(S(C)(=O)=O)cc2)cc1` ; IC50 = 1.48

====

measurement kind: melting point

Lookup result for `CC(=O)Oc1ccc(-c2[nH]c3ccc(Cl)cc3c2-c2ccc(S(C)(=O)=O)cc2)cc1` ; measured melting point: 248 to 250 °C

Data point: `Cc1ccc(-c2c(-c3ccc(S(C)(=O)=O)cc3)[nH]c3ccccc23)cc1C` ; melting point = 206 to 207 °C

Memo: `Cc1ccc(-c2c(-c3ccc(S(C)(=O)=O)cc3)[nH]c3ccccc23)cc1` , reported melting point: 197 to 198 °C

Entry `NS(=O)(=O)c1ccc(-c2c(-c3ccccc3)[nH]c3ccccc23)cc1` , melting point reported as 223 to 225 °C

So for `NS(=O)(=O)c1ccc(-c2[nH]c3ccccc3c2-c2ccc(O)cc2)cc1` , the logged melting point turned out to be 241 to 243 °C

Noted for `Cc1ccc2[nH]c(-c3ccc(S(N)(=O)=O)cc3)c(-c3ccccc3)c2c1` : its melting point reads 242 to 244 °C

The reported melting point of the molecule `CS(=O)(=O)c1ccc(-c2[nH]c3ccccc3c2-c2ccccc2)cc1` was 221 to 222 °C

The molecule listed as `CS(=O)(=O)c1ccc(-c2[nH]c3ccc(Cl)cc3c2-c2ccc(S(C)(=O)=O)cc2)cc1` shows melting point equal to 173 to 175 °C

molecule `NS(=O)(=O)c1ccc(-c2[nH]c3ccc(F)cc3c2-c2ccccc2)cc1` , melting point observed: 302 to 304 °C

Short answer for `Cc1ccc(-c2c(-c3ccc(S(N)(=O)=O)cc3)[nH]c3ccccc23)cc1` : melting point was 293 to 295 °C

Documented melting point of `NS(=O)(=O)c1ccc(-c2[nH]c3ccccc3c2-c2ccc(F)cc2)cc1` : 228 to 230 °C

For record `CC(=O)NS(=O)(=O)c1ccc(-c2[nH]c3ccccc3c2-c2ccccc2)cc1` the listed melting point is 221 to 222 °C

Form field melting point, entry `CS(=O)(=O)c1ccc(-c2[nH]c3ccccc3c2-c2ccc(Br)cc2)cc1` : 225 to 226 °C

Note to self: melting point recorded for `CS(=O)(=O)c1ccc(-c2[nH]c3ccccc3c2-c2ccc(Cl)cc2)cc1` was 198.5 to 200.5 °C

What the record says about `Cc1ccc(-c2c(-c3ccc(S(N)(=O)=O)cc3)[nH]c3ccccc23)cc1C` : melting point is 251 to 253 °C

Entry `NS(=O)(=O)c1ccc(-c2[nH]c3ccccc3c2-c2ccc(Cl)cc2)cc1` , melting point reported as 298 to 300 °C

melting point in this record for `NS(=O)(=O)c1ccc(-c2[nH]c3ccc(Cl)cc3c2-c2ccc(Cl)cc2)cc1` : 245 to 247 °C

====

Target: COX-2 (Mus musculus, UniProt Q05769)
Construct: endogenous in cells
Assay: COX-2 assay: PGE2 release (RIA) from LPS-stimulated mouse peritoneal macrophages
Conditions: LPS 1 mg/L 9 h, PGE2 by RIA
Just a reminder that ties go to Not satisfied: only IC50 strictly below 1 nM counts as Satisfied.

Q: Report whether reported IC50 is lower than 1 nM (strictly) for `NS(=O)(=O)c1ccc(-c2[nH]c3ccc(F)cc3c2-c2ccccc2)cc1`
Result: Not satisfied

Q: Is the reported IC50 for `CS(=O)(=O)c1ccc(-c2c(-c3ccccc3)[nH]c3ccccc23)cc1` strictly below 1 nM?
Result: Satisfied

Q: Check if IC50 falls below 1 nM for `CS(=O)(=O)c1ccc(-c2[nH]c3ccc(Br)cc3c2-c2ccccc2)cc1` .
Result: Not satisfied

Q: Lab log: compare recorded IC50 with 1 nM; is it strictly lower for `CS(=O)(=O)c1ccc(-c2c(-c3ccccc3F)[nH]c3ccc(Cl)cc23)cc1` ?
Result: Not satisfied

Q: Consider the molecule `CS(=O)(=O)c1ccc(-c2[nH]c3ccccc3c2-c2ccccc2)cc1` . Is its IC50 strictly less than 1 nM?
Result: Not satisfied

Q: Please state whether IC50 is below 1 nM for `Cc1ccc(-c2c(-c3ccc(S(N)(=O)=O)cc3)[nH]c3ccccc23)cc1C`
Result: Not satisfied

Q: Consider the molecule `CS(=O)(=O)c1ccc(-c2[nH]c3ccc(Cl)cc3c2-c2cccc(Cl)c2)cc1` . Is its IC50 strictly less than 1 nM?
Result: Satisfied

Q: Criterion: IC50 strictly below 1 nM. Is it met by `NS(=O)(=O)c1ccc(-c2[nH]c3ccccc3c2-c2ccc(Cl)cc2)cc1` ?
Result: Not satisfied

====

System: carrageenan-induced foot pad edema
Assay: Rat carrageenan-induced foot pad edema assay
Assay type: in vivo
Settings: 10 mg/kg oral, 2 h after carrageenan
Description: Male Sprgue-Dawley rats (190-220 g ) were fasted with free access to water at least 16 h prior experiments. The rats were dosed orally with a 1 ml suspension of test compound in vehicle (0.5% methyl cellulose and 0.025% Tween-20) or with vehicle alone. One hour later a subplantar injection of 0.1 ml of 1% solution of carageenan in 0.9% strile saline was administered to the right hind foot pad. Paw volume was measured with a displacement plethysmometer 2, 3, and 4 h after carrageenan injection.
measurement kind: edema (paw volume increase)
The reply should read as a number followed by its unit.

Value of edema (paw volume increase) reported for the compound CS(=O)(=O)c1ccc(-c2c(-c3ccccc3)[nH]c3ccc(Cl)cc23)cc1 [Example 87] is 45.4%

The recorded edema (paw volume increase) for entry NS(=O)(=O)c1ccc(-c2[nH]c3ccccc3c2-c2ccc(F)cc2)cc1 [Example 72] equals 32.8%

Entry NS(=O)(=O)c1ccc(-c2[nH]c3ccccc3c2-c2ccccc2)cc1 [Example 60, 2-(4-aminosulfonylphenyl)-3-phenylindole] — recorded edema (paw volume increase) = 32.5%

Lab note: CS(=O)(=O)c1ccc(-c2[nH]c3ccccc3c2-c2ccc(Cl)cc2)cc1 [Example 61] gave edema (paw volume increase) of 14.6%

Just so you know, measured edema (paw volume increase) for NS(=O)(=O)c1ccc(-c2[nH]c3ccc(Cl)cc3c2-c2cccc(Cl)c2)cc1 [Example 85] came out at 57.2%

response.value for NS(=O)(=O)c1ccc(-c2[nH]c3ccc(Cl)cc3c2-c2ccccc2)cc1 [Example 75] (field: edema (paw volume increase)) = 35.6%

// sample Cc1ccc(-c2cc(C(F)(F)F)nn2-c2ccc(S(N)(=O)=O)cc2)cc1 [Celecoxib, reference compound] , its edema (paw volume increase) was 31.1%

The compound listed as COc1ccc(-c2c(-c3ccc(S(N)(=O)=O)cc3)[nH]c3ccccc23)cc1 [Example 70] shows edema (paw volume increase) equal to 21.9%

Lab note: CS(=O)(=O)c1ccc(-c2c(-c3ccc(Cl)cc3)[nH]c3ccc(Cl)cc23)cc1 [Example 89] gave edema (paw volume increase) of 58.6%

Recorded result, COc1ccc(-c2[nH]c3ccc(Cl)cc3c2-c2ccc(S(C)(=O)=O)cc2)cc1 [Example 90] , edema (paw volume increase): 44.2%

Data point: CC(=O)Oc1ccc(-c2[nH]c3ccc(Cl)cc3c2-c2ccc(S(C)(=O)=O)cc2)cc1 [Example 94] ; edema (paw volume increase) = 58.8%

The measured edema (paw volume increase) associated with CS(=O)(=O)c1ccc(-c2[nH]c3ccccc3c2-c2ccc(F)cc2)cc1 [Example 71] reads 44%

GET /value?item= COc1ccc(-c2c(-c3ccc(S(C)(=O)=O)cc3)[nH]c3ccccc23)cc1 [Example 69] &field=edema (paw volume increase) returns 21.6%

Record CS(=O)(=O)c1ccc(C2=C(c3ccccc3)C(=O)OC2)cc1 [Rofecoxib, reference compound] , field edema (paw volume increase): 50.3%

GET /value?item= NS(=O)(=O)c1ccc(-c2[nH]c3ccccc3c2-c2ccc(Cl)cc2)cc1 [Example 62] &field=edema (paw volume increase) returns 16.6%

edema (paw volume increase) in this record for CS(=O)(=O)c1ccc(-c2[nH]c3ccccc3c2-c2ccc(Br)cc2)cc1 [Example 63] : 27.1%

Notebook: Cc1ccc(-c2c(-c3ccc(S(C)(=O)=O)cc3)[nH]c3ccccc23)cc1 [Example 65] , edema (paw volume increase) read as 18.5%
